# Test system: Deroceras reticulatum (grey field slug)
# METHOD DESCRIPTION: Example 1: pot test, treated winter wheat seed with 5 adult slugs per pot, 14 days
# Format: in vivo
# RUN CONDITIONS: 2 ml formulated per kg seed; 10 days after sowing
REPORTED METRIC: Mean number of dead slugs per pot
Reply with just the number.

* COc1cc(C=CC(=O)O)cc(OC)c1 | 0.3
* CC=C(C)C(=O)OC1CC(OC(C)=O)C2(C(=O)OC)COC3C2C12COC(O)(C(=O)OC)C2C(C)(C12OC1(C)C1CC2OC2OC=CC21O)C3O (stereo not shown) | 0.3
* O=[N+]([O-])NC1=NCCN1Cc1ccc(Cl)nc1 | 0.3
* CNC(=O)Oc1cc(C)c(SC)c(C)c1 [methiocarb, 4-methylthio-3,5-xylyl methylcarbamate] | 0.3
* O=CC=Cc1ccccc1 | 1.3

Req: Dear colleague, I am looking for the recorded Mean number of dead slugs per pot of the following compound: N#CN=C1SCCN1Cc1ccc(Cl)nc1
Resp: 0.5

Req: Give the measured Mean number of dead slugs per pot of CN1COCN(Cc2cnc(Cl)s2)/C1=N\[N+](=O)[O-] .
Resp: 0
